experiment: inhibition of PAO1 biofilm formation – strain PAO1, LB-PBS medium, absorbance 600 nm, primary screen (AID 1176); also: test concentration not given here; settings: P. aeruginosa PAO1 growth/biofilm, A600, 12 h; higher = more signal
z-score listing for selected compounds.
Please respond with just the number, no unit label.

COc1ccc([Si](C)(C)[C@H]2[C@H](CC(=O)N3CCC[C@H]3CO)O[C@@]3(C(=O)N(Cc4ccc(N5C(=O)c6cccc7cccc5c67)cc4)c4ccccc43)[C@@H]2C)cc1	0.189

(Q) Report measured z-score; entry is CC(C)c1ccc(NN2C(C(O)c3cccs3)C=CC3C(=O)N(c4ccccc4)C(=O)C32)cc1 (stereo not drawn)
(A) 0.835

(Q) Check the records and state z-score for NC(=O)NCC#Cc1ccc2c(c1)[C@]1(C(=O)N2)[C@H](c2ccc(OCCO)cc2)N2[C@H](c3ccccc3)[C@H](c3ccccc3)OC(=O)[C@H]2[C@@H]1C(=O)N1CCCCCCC1
(A) 2.03

(Q) Tell me measured z-score for CN1C(=O)C2C=CC(C(O)c3cccc4ccccc34)N(NC(=O)OC(C)(C)C)C2C1=O (stereo not drawn) please.
(A) 0.378

(Q) Tell us which z-score value is on record for COC(=O)[C@@]1(Cc2ccc(F)cc2)[C@@H]2[C@@H](CC(=O)[C@H]2CC(=O)C(=O)N2CCCC2)CN1C(=O)c1ccccc1
(A) 1.03

(Q) Give the reported value of z-score for this record: C=CCOC(=O)[C@@H]1[C@H]2C(=O)O[C@H](c3ccccc3)[C@H](c3ccccc3)N2[C@H](c2ccc(OCCOC(=O)[C@@H]3C[C@@H]4C(=O)N5CCC[C@H]5C(=O)N4[C@@H]3c3cccc(OCCO)c3)cc2)[C@@]12C(=O)Nc1ccc(I)cc12
(A) 1.69

###

tested on: Lefty1; experiment: Lefty1 protein binding to printed compounds – biochemical, small-molecule microarray, 635/667 nm fluorescence, primary screen (AID 1139); details: fluorescence 635/667, higher = more signal
measured_parameter: composite z-score
Give the figure by itself; no unit, no explanation.

COCCOC(=O)N1C(=O)[C@@]2(c3cc(C#CC4(O)CCCCCC4)ccc31)[C@H](C(=O)N1CCc3cc(OC)c(OC)cc3C1)[C@H]1C(=O)O[C@H](c3ccccc3)[C@H](c3ccccc3)N1[C@@H]2c1ccccc1OCCO	1.28

(Q) In one line, give reported composite z-score of the entry CCCNC(=O)[C@@]1(Sc2ccc(C)cc2)CC(=O)N(Cc2ccccc2)[C@@H]1c1ccc(CO)cc1I .
(A) 0.427

(Q) Tell me composite z-score reported for NC(=O)NCC#Cc1ccc2c(c1)[C@]1(C(=O)N2)[C@H](c2ccc(O)cc2)N2[C@H](c3ccccc3)[C@H](c3ccccc3)OC(=O)[C@H]2[C@@H]1C(=O)NC[C@H](O)c1ccccc1
(A) -3.02

(Q) Return value of composite z-score for input COC(=O)C(CC#Cc1ccc2c(c1)[C@]1(C(=O)N2)[C@H](c2ccc(O)cc2)N2[C@H](c3ccccc3)[C@H](c3ccccc3)OC(=O)[C@H]2[C@@H]1C(=O)O)C(=O)OC , no commentary.
(A) 0.369

(Q) Given COC(=O)[C@@]1(Cc2ccccc2N=[N+]=[N-])N=C(c2ccc(OCCCO)cc2)O[C@H]1c1ccccc1 , respond with its composite z-score.
(A) 0.138

(Q) Specify reported composite z-score for the compound shown: C[C@]12C(=O)N(CCCCCO)[C@@H]3C(=O)N(c4ccc(Cl)cc4)CC=CC31O[C@@H]1/C=C\CCCOC(=O)C12 (stereo not given in full)
(A) -0.431

(Q) Give recorded composite z-score. CCCCC(CC)C(O)C1C=CC2C(=O)NC(=O)C2N1Nc1ccccn1 (stereo not given)
(A) 0.21

(Q) Return the recorded composite z-score value; entry: COc1ccc([Si](C)(C)[C@@H]2[C@@H](CC(=O)N(CCO)Cc3ccccc3)O[C@]3(C(=O)N(Cc4ccc(N5CCOC5=O)cc4)c4ccccc43)[C@H]2C)cc1
(A) 1.48

(Q) Return composite z-score for the following compound: CN1C(=O)C2C=CC(C(O)C3CCCCC3)N(N(c3ccccc3)c3ccccc3)C2C1=O (stereo not given)
(A) -1.6

(Q) Entry COc1ccc(C(=O)Nc2ccc(CN3C(=O)[C@]4(O[C@H](CCn5cc([C@H](O)c6ccccc6)nn5)[C@@H]([Si](C)(C)c5ccc(OC)cc5)[C@@H]4C)c4ccccc43)cc2)cc1 needs its composite z-score filled in; supply it.
(A) 0.444

###

Item-by-item account of composite z-score
tested on: Neuregulin-1 EGF-like domain; test: small molecules binding NRG1 EGF domain – biochemical, small-molecule microarray, 635 nm fluorescence, primary screen (AID 1081); conditions: higher = more signal
Output spec: single numeric token, no unit.

CCOC(=O)C1=CCC(c2cccc(Cl)c2)O1 (configuration not stated)	0.575

(Q) Could you please provide reported composite z-score for CC(C)CCC[C@@H](C)[C@H]1CC[C@@]2(C)C3=C(CC[C@]12C)[C@@]1(C)CC[C@H](OC(=O)C(C)(C)C)C(C)(C)C1CC3 (some centres not stated) ? Thanks!
(A) 0.307

(Q) Consider the compound COC(=O)C(CC#Cc1ccc2c(c1)[C@]1(C(=O)N2)[C@H](C(=O)N2CCc3cc(OC)c(OC)cc3C2)[C@H]2C(=O)O[C@H](c3ccccc3)[C@H](c3ccccc3)N2[C@@H]1c1ccc(O)cc1)C(=O)OC and give its recorded composite z-score.
(A) 1.35

###

Listing of entries alongside the reported z-score.
experiment: compound effects on lung adenocarcinoma cell viability – A549, calcein-AM fluorescence, 48 h, basal, profiling panel (AID 1162); conditions: higher = more signal; also: test concentration not given here
Provide a numeric answer; units are not to be included.

Consider the worked cases shown below.
CC(C)(C)OC(=O)CC[C@]1(C(=O)N2CCCCC2)N=C(c2ccc(OCCCO)cc2)O[C@H]1c1ccccc1CN=[N+]=[N-]	1.1
CC(C)(C)OC(=O)CC[C@@]1(C(=O)N2CCCCC2)N=C(c2ccc(OCCCO)cc2)O[C@@H]1c1ccccc1N=[N+]=[N-]	0.611
CN(C)C(=O)[C@]1(Cc2ccccc2N=[N+]=[N-])N=C(c2ccc(OCCCO)cc2)O[C@@H]1c1ccccc1CN=[N+]=[N-]	-0.409
C=CCNC(=O)[C@@H]1[C@H]2C(=O)O[C@H](c3ccccc3)[C@H](c3ccccc3)N2[C@H](c2ccc(O)cc2)[C@@]12C(=O)Nc1ccc(C#CCCO)cc12	0.47
CCOC(=O)C[C@H]1[C@H](OC(=O)c2ccccc2-c2ccccc2)[C@@H](NC(=O)c2ccccc2)c2cc(OCCCO)ccc2N1C(=O)Cc1ccc(OC)cc1	1.29
CN(C)C(=O)[C@@]1(Cc2ccccc2N=[N+]=[N-])N=C(c2ccc(OCCCO)cc2)O[C@H]1c1ccccc1N=[N+]=[N-]	-0.0639

Now consider the entry below.
(Q) Let me know recorded z-score for CN1C(=O)C2C=CC(C(O)c3ccc(F)cc3)N(N3CCCCC3)C2C1=O (configuration not stated) , thanks.
(A) -1.1

###

system: Sonic hedgehog protein (Shh); assay: Sonic hedgehog microarray binding compounds – biochemical, small-molecule microarray, 635/667 nm fluorescence, primary screen (AID 1151); details: 635 nm fluorescence, higher = more signal;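 also: Shh protein binding to compounds spotted on small-molecule microarray slides; score combines spot fluorescence intensity with signal-to-noise across triplicate slides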
composite z-score for assorted compounds
Keep it simple and answer with nothing but the number.

C[C@]12C(=O)N(CCCO)[C@@H]3C(=O)N(c4ccc(Cl)cc4)CC=CC31O[C@@H]1/C=C\CCCOC(=O)C12 (stereo not given in full)	0.399
COCC1=C([C@H](O)CCc2ccccc2)[C@H](CO)[C@@H]2C(=O)N(C)C(=O)[C@@H]2C1	0.552
COC(=O)[C@@]1(Cc2ccccc2)[C@H]2c3cc(C(=O)N4CCCC4)n(Cc4ccccc4)c3C[C@H]2CN1C(=O)c1ccccc1	-0.606

Read the next record carefully.
(Q) Respond only with composite z-score recorded for C[C@H]1ON(c2ccccc2)[C@@H](c2ccccc2)[C@@H]1C(=O)N1C(=O)OC[C@@H]1c1ccccc1
(A) 0.657

###

In this section, each of the compounds is paired with its reported composite z-score.
test system: Neuregulin-1 EGF-like domain; experiment: small molecules binding NRG1 EGF domain – biochemical, small-molecule microarray, 635 nm fluorescence, primary screen (AID 1081); details: higher = more signal

COc1ccc([Si](C)(C)[C@@H]2[C@@H](CC(=O)N(CCO)Cc3ccccc3)O[C@]3(C(=O)N(Cc4ccc(N5CCOC5=O)cc4)c4ccccc43)[C@H]2C)cc1	1.1
C=CCC(OC(C)=O)[C@@H]1[C@@H](N(Cc2cc3ccccc3o2)C(=O)Cc2ccc(OC)cc2)c2cc(OCCCO)ccc2N1C(=O)c1ccc(-c2ccccc2)cc1 (stereo partly drawn)	-0.529

Lab note: next compound to report on.
(Q) Specify composite z-score for C=C(COC)C(=O)CC[C@H](OC(=O)c1ccccc1-c1ccccc1C(=O)O)c1ccc(CO)o1 and stop.
(A) 1.33
